Assay: Efflux ratio of apparent permeability in human Caco2 cells at 10 uM incubated for 120 mins by LC-MS/MS analysis
Type: ADME, cell-based
Conditions: Caco-2
Measured Metric: efflux ratio at 2 h, 10 µM
Give bare numbers.

*Q* For O=C1Cc2cc(C(=O)N[C@H]3C[C@H]4CC[C@@H](C3)N4S(=O)(=O)CC3CCN(CCCC(F)(F)F)CC3)c(Cl)cc2N1 , what is its reported efflux ratio at 2 h, 10 µM?
*A* 41

###

Assay: Tmax in CD1 mouse at 50 mg/kg, administered through oral gavage by LC-MS/MS analysis
Type: ADME, organism-based
Details: in vivo
Measured Metric: Tmax (h)
Numbers only, in h.

*Q* For O=C1Cc2cc(C(=O)N[C@H]3C[C@H]4CC[C@@H](C3)N4S(=O)(=O)CC3CCN(CCCC(F)(F)F)CC3)c(Cl)cc2N1 , what is its reported Tmax?
*A* 1.3

###

Assay: AUC (0 to last) in CD1 mouse at 50 mg/kg, administered through oral gavage measured up to 24 hrs by LC-MS/MS analysis
Type: ADME, organism-based
Design: dose 50 mg/kg, route oral, time 0 - last
Conditions: in vivo
Measured Metric: AUC(0-t) at 24 h (ng·h/mL)
One number for each entry, in ng·h/mL.

*Q* For O=C1Cc2cc(C(=O)N[C@H]3C[C@H]4CC[C@@H](C3)N4S(=O)(=O)CC3CCN(CCCC(F)(F)F)CC3)c(Cl)cc2N1 , what is its reported AUC(0-t) at 24 h?
*A* 21200

###

Assay: Cmax in CD1 mouse at 5 mg/kg, administered through oral gavage measured up to 24 hrs by LC-MS/MS analysis
Format: ADME, organism-based
Parameters: dose 5 mg/kg, route oral
Details: in vivo
Measured Metric: Cmax (ng/mL)
Numbers only, in ng/mL.

*Q* For O=C1Cc2cc(C(=O)N[C@H]3C[C@H]4CC[C@@H](C3)N4S(=O)(=O)CC3CCN(CCCC(F)(F)F)CC3)c(Cl)cc2N1 , what is its reported Cmax?
*A* 345

###

Biological target: Histone-lysine N-methyltransferase SMYD3 (Homo sapiens, UniProt Q9H7B4)
Sequence (Q9H7B4 whole entry, the tested form may be a part): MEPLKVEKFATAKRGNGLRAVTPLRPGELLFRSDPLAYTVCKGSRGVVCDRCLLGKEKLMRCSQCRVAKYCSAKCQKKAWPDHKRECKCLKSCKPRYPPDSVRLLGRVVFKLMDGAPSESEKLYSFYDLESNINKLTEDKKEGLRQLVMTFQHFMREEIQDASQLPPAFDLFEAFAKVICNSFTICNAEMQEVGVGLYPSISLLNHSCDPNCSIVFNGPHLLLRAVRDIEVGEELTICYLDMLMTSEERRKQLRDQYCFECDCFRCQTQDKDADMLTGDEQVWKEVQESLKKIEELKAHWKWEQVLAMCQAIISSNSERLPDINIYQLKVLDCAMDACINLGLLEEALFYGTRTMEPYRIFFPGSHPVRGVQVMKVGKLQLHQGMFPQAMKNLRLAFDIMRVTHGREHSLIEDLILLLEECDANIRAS
Test: Non-competitive inhibition of full length N-terminal His-tagged SMYD3 (1 to 428 residues) (unknown origin) expressed in Escherichia coli using fixed N-terminal GST-tagged MEKK2 substrate and varying SAM levels preincubated for 30 mins followed by substrate addition by filter plate assay
Measured Metric: Ki (nM)
Answers are plain numbers, in nM.

*Q* For O=C1Cc2cc(C(=O)N[C@H]3C[C@H]4CC[C@@H](C3)N4S(=O)(=O)CC3CCN(CCCC(F)(F)F)CC3)c(Cl)cc2N1 , what is its reported Ki?
*A* 1.2

###

Assay: Oral bioavailability in CD1 mouse at 50 mg/kg measured up to 24 hrs by LC-MS/MS analysis
Assay type: ADME, organism-based
Conditions: in vivo
Measured Metric: bioavailability (%)
Give bare numbers, in %.

*Q* For O=C1Cc2cc(C(=O)N[C@H]3C[C@H]4CC[C@@H](C3)N4S(=O)(=O)CC3CCN(CCCC(F)(F)F)CC3)c(Cl)cc2N1 , what is its reported bioavailability?
*A* 69

###

Test: Oral bioavailability in CD1 mouse at 5 mg/kg measured up to 24 hrs by LC-MS/MS analysis
Assay type: ADME, organism-based
Details: in vivo
Measured Metric: bioavailability (%)
Give bare numbers, in %.

*Q* For O=C1Cc2cc(C(=O)N[C@H]3C[C@H]4CC[C@@H](C3)N4S(=O)(=O)CC3CCN(CCCC(F)(F)F)CC3)c(Cl)cc2N1 , what is its reported bioavailability?
*A* 48

Source: ChEMBL document CHEMBL3797202
